biological target: T1, CD137-hisFc fusion protein (Sino Biological Cat 10041-H03H) (human, UniProt Q07011 24-186); experiment: BLI Octet, Fab
T1 construct: Bought; also called recombinant human CD137 (fused with human Fc and His tag); not shown: His tag and human Fc
OBSERVABLE: kon (M⁻¹ s⁻¹)
Give the number; M⁻¹ s⁻¹ is assumed, so skip it.

# BINDER, UNIT TEXT, kon
measured = [
    ("Fab 5360 (Fab, V domains shown, Fab from E. coli; also called VH28/VL28) VH: EVQLVESGGGLVQPGGSLRLSCAASGYSITSGHYWNWIRQAPGKGLEWVSGISGDGSSTYYADSVKGRFTISRDNSKNTLYLQLNSLRAEDTAVYYCARGGSDAVLGDWFAYWGQGTLVTVSS VL: DIQLTQSPSSLSASVGDRVTITCRASQSISSYLAWYQQKPGKAPKLLIYDASNLETGVPSRFSGSGSGTDFTLTISSLQPEDFATYYCQQGYSTWTFGQGTKVEIKR", "M⁻¹ s⁻¹", 120000),
    ("Fab 5371 (Fab, V domains shown, Fab from E. coli; also called VH33/VL33) VH: EVQLVESGGGLVQPGGSLRLSCAASGFSLSTSGVGVAWIRQAPGKGLEWVSYISGDGGSTYYADSVKGRFTISRDNSKNTLYLQLNSLRAEDTAVYYCAREGSDVVAGDWFAYWGQGTLVTVSS VL: DIQLTQSPSSLSASVGDRVTITCRASQDISSVLAWYQQKPGKAPKLLIYDASSLESGVPSRFSGSGSGTDFTLTISSLQPEDFATYYCQQGYQIWTFGQGTKVEIKR", "M⁻¹ s⁻¹", "1.21e+06"),
    ("Fab 7131 (Fab, V domains shown, Fab from E. coli; also called VH55/VL55) VH: EVQLVESGGGLVQPGGSLRLSCAASGFSLSTGGVGVGWIRQAPGKGLEWVSYISGAGDSTYYADSVKGRFTISRDNSKNTLYLQLNSLRAEDTAVYYCAREGSDTVLGDWFAYWGQGTLVTVSS VL: DIQLTQSPSSLSASVGDRVTITCRASQGVSSYLAWYQQKPGKAPKLLIYDASNLETGVPSRFSGSGSGTDFTLTISSLQPEDFATYYCQQYYTTPLTFGQGTKVEIKR", "M⁻¹ s⁻¹", 266000),
    ("Fab 7097 (Fab, V domains shown, Fab from E. coli; also called VH49/VL49) VH: EVQLVESGGGLVQPGGSLRLSCAASGYSISSGHHWDWIRQAPGKGLEWVSYISGAGDTTYYADSVKGRFTISRDNSKNTLYLQLNSLRAEDTAVYYCAREGSDAVLGDWFAYWGQGTLVTVSS VL: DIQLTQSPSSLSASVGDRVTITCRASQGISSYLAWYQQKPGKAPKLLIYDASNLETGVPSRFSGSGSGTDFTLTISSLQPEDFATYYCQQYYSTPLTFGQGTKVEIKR", "M⁻¹ s⁻¹", 542000),
]

--- query ---
Look at this binder and give its reported kon. Fab 5348 (Fab, V domains shown, Fab from E. coli; also called VH23/VL23) VH: EVQLVESGGGLVQPGGSLRLSCAASGFSLSTGGVAVGWIRQAPGKGLEWVSGISGDGGTTYYADSVKGRFTISRDNSKNTLYLQLNSLRAEDTAVYYCTREDYGPHAYWGQGTLVTVSS VL: DIQLTQSPSSLSASVGDRVTITCRASQSITTYLNWYQQKPGKAPKLLIYDASNLETGVPSRFSGSGSGTDFTLTISSLQPEDFATYYCQQSYSYSTFGQGTKVEIKR 1.31e+06

Origin of the recorded values: patent US20190055314A1
